Tested on: ATP;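 further: ATP exposure 15 min at 22 °C before imaging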
Assay: switch fluorescence ratio, 500 uM ATP over buffer (Cy3 cluster intensity, sum of 5 cycles each) (fold (ratio)); higher = stronger signal-on switching upon ATP binding; sequences stand for … in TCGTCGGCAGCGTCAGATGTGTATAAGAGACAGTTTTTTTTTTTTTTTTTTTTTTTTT…TC
Details: aptamer strand: ATP DNA aptamer (quencher-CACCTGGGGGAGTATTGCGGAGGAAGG + anchor), 100 nM annealed; ATP concentration: 500 uM
Measurement label: switch fluorescence ratio

• ATGCTATGCG = 1.01
• TGTTTGAAGT = 0.989
• GAGGAGGAAT = 1.01
• AGAGGGGTTG = 0.972
• AGAATGATCG = 0.994
• ACAGGGGTAA = 1.01
• TTAGGGTTCC = 0.992
• AGGGAGCGCG = 0.995
• TGGGCTGTTT = 1.01
• TATGTATCTA = 1.02
• TCAAAGTTGG = 1.01
• ATTGTTACGG = 0.998
• AATAAAAGGG = 1
• CATGGGGGGT = 0.994
• ATATGTGGAA = 1.02
• GGAGAGAGGG = 1.02
• AATTTGTCCA = 0.98
• AGAGTATGAA = 1
• GCGTTGAGCT = 0.987
• GGGGTTCTTA = 1.02
• AGGCCGGGGT = 1.01
• AGTCGCGCGC = 0.989
• TGATGATTTC = 1.01
• CCAGGGTATC = 1.06
• AGGGAGGGGA = 1.03
• GTTGGGTGGG = 0.984
• AAGTTCCGGA = 1.03
• GTATTGGTCG = 1.06
• TGAGAAAATT = 1.02
• GCGGGGTCTG = 0.985
• GTGAGTGGTG = 0.978
• TACGTGGCTG = 1.05
• CGCATAGTTG = 1.06
• GGGCTTAGAG = 1.01
• CCTGTGGTGC = 1.34
• GTTGTGTTTG = 0.998
• CTGGTTTTTT = 0.99
• ACCGTCATTT = 1.05
• TCTCGGCTAT = 2.98
• GAATGAAGGT = 0.985
• GGGTGCAAGC = 1.06
• GGGGAGGAGG = 0.986
• CTTGGTGGAC = 0.97
• ATCGGGGGA = 1.02
• ATTGATGTTC = 0.99
• CCCATGGACT = 1.03
• GTCGCATGAG = 1.03
• AACCAATAGC = 1.1
• GTGGATATAG = 0.993
• GGCAGGTTGG = 0.952
• TAGCTTGTCA = 0.988
• TCAGGGGTCG = 1.05
• GGGAGTAGTT = 1.01
• CATCGAGATG = 1.01
• AATATAATGT = 1.03
• GGATAGGGGC = 1.03
• AGGGTCTTGC = 0.998
• CTAAATCGGT = 0.987
• GGAAGTTCTA = 0.984
• AGATTTTCTG = 1.01
• ATTGGCATGC = 0.996
• ACTCTGGTAA = 1.07
• AACGGGCTTT = 0.969
• AGTGTTGGGG = 0.998
• TGCTAGATAA = 1
• TTTATGAAAG = 0.97
• TGGGGTTGTA = 1.01
• CGCGGGGGCG = 0.991
• GGGTATCTGT = 1.01

Recorded values, source the supplement of paper PMC10126150.
